Assay: DDI study: pharmacokinetics of fedratinib in rats with or without antifungal drugs
Assay type: in vivo, Sprague-Dawley (SD) rats
Conditions: male, Sprague-Dawley, rat, plasma, po, 40 mg/kg, 40 mg/kg fedratinib oral gavage, Group C: 20 mg/kg posaconazole 30 min before, n = 6, Mean ± SD
measure: Cmax (ng/mL)
Give just the numeric value; ng/mL need not be written.

*Q* Any idea what its Cmax is? The compound is Cc1cnc(Nc2ccc(OCCN3CCCC3)cc2)nc1Nc1cccc(S(=O)(=O)NC(C)(C)C)c1 [Fedratinib]
*A* 98.1

====

Assay: DDI study: pharmacokinetics of fedratinib in rats with or without antifungal drugs
Assay type: in vivo, Sprague-Dawley (SD) rats
Details: male, Sprague-Dawley, rat, plasma, po, 40 mg/kg, 40 mg/kg fedratinib oral gavage, Group C: 20 mg/kg posaconazole 30 min before, n = 6, Mean ± SD
From the text: The UPLC-MS/MS procedures were developed and validated to detect fedratinib concentration in plasma to support an investigational study in healthy male Sprague-Dawley (SD) rats (weighing 200 ± 20 g), which were purchased from Laboratory Animal Center of Wenzhou Medical University (Wenzhou, China). The protocols and procedures of the animal experiment were checked in accordance with the regulations defined by Wenzhou Medical University Animal Care and Use Committee (wydw 2018-0002). […]
measure: Tmax (h)
Please give a number only; it is taken to be in h.

*Q* Return reported Tmax; argument: Cc1cnc(Nc2ccc(OCCN3CCCC3)cc2)nc1Nc1cccc(S(=O)(=O)NC(C)(C)C)c1
*A* 6

====

Assay: DDI study: pharmacokinetics of fedratinib in rats with or without antifungal drugs
Assay type: in vivo, Sprague-Dawley (SD) rats
Settings: male, Sprague-Dawley, rat, plasma, po, 40 mg/kg, 40 mg/kg fedratinib oral gavage, Group A: control (0.5% CMC-Na) 30 min before, n = 6, Mean ± SD
measure: AUC(0-t) (ng·h/mL)
The reply should be a number in ng·h/mL, with the unit left off.

*Q* What value of measured AUC(0-t) is listed for Cc1cnc(Nc2ccc(OCCN3CCCC3)cc2)nc1Nc1cccc(S(=O)(=O)NC(C)(C)C)c1 [Fedratinib] ?
*A* 2010

====

Experiment: DDI study: pharmacokinetics of fedratinib in rats with or without antifungal drugs
Type: in vivo, Sprague-Dawley (SD) rats
Details: male, Sprague-Dawley, rat, plasma, po, 40 mg/kg, 40 mg/kg fedratinib oral gavage, Group B: 20 mg/kg isavuconazole 30 min before, n = 6, Mean ± SD
measure: Tmax (h)
Reply numerically in h, unit not repeated.

*Q* Which Tmax value belongs to Cc1cnc(Nc2ccc(OCCN3CCCC3)cc2)nc1Nc1cccc(S(=O)(=O)NC(C)(C)C)c1 ?
*A* 6.4

====

Test: DDI study: pharmacokinetics of fedratinib in rats with or without antifungal drugs
Format: in vivo, Sprague-Dawley (SD) rats
Conditions: male, Sprague-Dawley, rat, plasma, po, 40 mg/kg, 40 mg/kg fedratinib oral gavage, Group A: control (0.5% CMC-Na) 30 min before, n = 6, Mean ± SD
measure: AUC(0-inf)

*Q* Fill in: AUC(0-inf) of Cc1cnc(Nc2ccc(OCCN3CCCC3)cc2)nc1Nc1cccc(S(=O)(=O)NC(C)(C)C)c1 [Fedratinib] is ___
*A* 2150 ng·h/mL

====

Assay: DDI study: pharmacokinetics of fedratinib in rats with or without antifungal drugs
Assay type: in vivo, Sprague-Dawley (SD) rats
Conditions: male, Sprague-Dawley, rat, plasma, po, 40 mg/kg, 40 mg/kg fedratinib oral gavage, Group C: 20 mg/kg posaconazole 30 min before, n = 6, Mean ± SD, read-out: MRT0→∞
measure: MRT inf (h)
// note: answer is a bare numeric in h

*Q* Can you look up the measured MRT inf of Cc1cnc(Nc2ccc(OCCN3CCCC3)cc2)nc1Nc1cccc(S(=O)(=O)NC(C)(C)C)c1 for me?
*A* 14.6
